- targetOrTestSystem: Myosin-7 (Bos taurus)
- Sequence (Q9BE39 whole entry, looked up): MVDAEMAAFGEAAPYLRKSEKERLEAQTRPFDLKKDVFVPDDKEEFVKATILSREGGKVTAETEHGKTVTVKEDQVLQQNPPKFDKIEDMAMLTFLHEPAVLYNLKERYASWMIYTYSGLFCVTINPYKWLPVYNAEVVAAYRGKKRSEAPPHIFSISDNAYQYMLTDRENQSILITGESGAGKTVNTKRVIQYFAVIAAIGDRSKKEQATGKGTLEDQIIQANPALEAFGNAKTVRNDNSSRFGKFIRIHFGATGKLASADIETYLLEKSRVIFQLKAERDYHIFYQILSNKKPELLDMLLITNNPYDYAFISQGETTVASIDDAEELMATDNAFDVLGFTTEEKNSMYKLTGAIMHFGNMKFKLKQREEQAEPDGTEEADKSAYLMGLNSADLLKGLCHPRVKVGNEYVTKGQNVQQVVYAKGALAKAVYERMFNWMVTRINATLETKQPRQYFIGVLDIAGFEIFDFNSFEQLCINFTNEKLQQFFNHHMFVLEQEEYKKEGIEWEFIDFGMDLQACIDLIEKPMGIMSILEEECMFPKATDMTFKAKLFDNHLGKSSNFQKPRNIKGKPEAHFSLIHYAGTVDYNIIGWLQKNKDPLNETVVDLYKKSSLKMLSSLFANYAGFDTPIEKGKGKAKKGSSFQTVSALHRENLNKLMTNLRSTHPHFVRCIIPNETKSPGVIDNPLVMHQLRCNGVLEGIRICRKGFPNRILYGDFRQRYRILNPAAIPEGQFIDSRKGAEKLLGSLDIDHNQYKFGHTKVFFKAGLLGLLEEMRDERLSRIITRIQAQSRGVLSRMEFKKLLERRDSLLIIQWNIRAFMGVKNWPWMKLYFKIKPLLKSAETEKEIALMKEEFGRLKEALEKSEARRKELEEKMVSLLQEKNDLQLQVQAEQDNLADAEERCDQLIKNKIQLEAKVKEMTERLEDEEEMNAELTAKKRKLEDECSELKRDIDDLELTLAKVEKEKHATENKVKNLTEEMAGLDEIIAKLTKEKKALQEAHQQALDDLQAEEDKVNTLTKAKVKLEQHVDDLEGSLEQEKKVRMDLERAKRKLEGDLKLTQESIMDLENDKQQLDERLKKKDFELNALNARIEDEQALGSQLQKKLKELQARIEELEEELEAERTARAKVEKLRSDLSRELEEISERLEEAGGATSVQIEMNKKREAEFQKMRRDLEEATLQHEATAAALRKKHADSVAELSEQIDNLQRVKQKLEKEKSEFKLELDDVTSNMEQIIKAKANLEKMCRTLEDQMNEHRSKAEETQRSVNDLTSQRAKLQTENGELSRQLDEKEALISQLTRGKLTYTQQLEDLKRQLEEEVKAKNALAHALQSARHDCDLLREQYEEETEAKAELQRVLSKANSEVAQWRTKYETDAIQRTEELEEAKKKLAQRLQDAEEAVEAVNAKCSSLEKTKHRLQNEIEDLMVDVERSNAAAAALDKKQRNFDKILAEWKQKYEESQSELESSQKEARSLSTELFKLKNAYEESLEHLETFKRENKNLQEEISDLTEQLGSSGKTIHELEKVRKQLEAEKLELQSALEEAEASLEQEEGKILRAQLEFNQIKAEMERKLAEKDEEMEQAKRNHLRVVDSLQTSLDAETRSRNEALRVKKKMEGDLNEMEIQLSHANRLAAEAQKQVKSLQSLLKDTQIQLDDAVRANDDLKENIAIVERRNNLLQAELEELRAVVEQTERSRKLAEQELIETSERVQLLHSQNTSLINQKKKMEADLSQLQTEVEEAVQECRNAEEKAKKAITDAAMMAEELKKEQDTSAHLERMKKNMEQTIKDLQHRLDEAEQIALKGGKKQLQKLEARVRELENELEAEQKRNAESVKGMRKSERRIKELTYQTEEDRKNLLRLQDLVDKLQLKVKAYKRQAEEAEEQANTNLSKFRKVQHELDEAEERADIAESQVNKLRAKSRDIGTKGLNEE
- methodSummary: Myofibril Assays
pIC50: −log10 of the molar value.
readoutName: pIC50

I = CCc1cc(-c2ccc3c(c2)CC[C@H]3NC(=O)OC)no1
II = O=C(N[C@@H]1CCc2cc(-c3noc(C4CC4)n3)ccc21)C1CC1
III = Cc1nc(-c2ccc3c(c2)CCC3NC(=O)Nc2cnccn2)no1 (stereo not drawn)
Exercise: Ascending by pIC50, please. Please write the labels in the order that was asked for.
Key: III, II, I
(III: 4.83, II: 5.03, I: 6.10)
